# system: Regulator of G-protein signaling 8 (Homo sapiens)
# Sequence (P57771 whole entry): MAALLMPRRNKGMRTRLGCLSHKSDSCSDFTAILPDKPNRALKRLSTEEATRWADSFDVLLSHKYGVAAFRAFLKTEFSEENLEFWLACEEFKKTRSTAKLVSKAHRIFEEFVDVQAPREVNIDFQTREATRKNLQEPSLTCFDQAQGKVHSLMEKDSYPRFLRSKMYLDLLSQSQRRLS
# protocol: RGS8-Galphao interaction modulators, SAR follow-up, biochemical, multiplex bead flow cytometry, SAR compounds (AID 2307)
measurement-type: Ki (nM)

I. NS(=O)(=O)c1ccc(N=NCc2ccc(O)c(O)c2O)c([N+](=O)[O-])c1
II. O=C(COc1ccccc1C(=O)NN=Cc1ccc(O)c(O)c1)NN=Cc1ccc(O)c(O)c1
Please indicate which has the smaller reported Ki: I , or II . Returns: label corresponding to the selected item.
I
(I: 20 nM, II: 100 nM)
